Source: ChEMBL document CHEMBL1201862

- Test system: BT-549
- assay: NCI tumour cell line growth inhibition, 48 h
Calls of active or inactive are those of the source. Cut-off read from the data, not from the text of the source: active = GI50 up to about 1.1 µM and inactive = higher.
measure.name: GI50

Here's what some known entries look like.
INSERT INTO assay_data (compound, measure_name, data_value) VALUES
  ('COc1ccc(-c2c3c(nc4nc(SCC(=O)c5ccc(Br)cc5)nc(N)c24)CCCC3)cc1OC', 'GI50', '80 µM (inactive)'),
  ('Clc1ccc(Cc2nc3cc(Cl)ccc3o2)cc1', 'GI50', '27.9 µM (inactive)'),
  ('CC(C)=NC(C(=O)O)C(C)(C)S (stereo not drawn)', 'GI50', '> 100 µM (inactive)');

Value sought: GI50, system BT-549, item S=C1CC(c2ccccc2)Sc2ccc(Cl)cc2N1 (stereo not drawn) . Result: 19.9 µM (inactive)

// compound O=C(c1cccs1)N(C(=S)OCc1ccccn1)c1ccccc1 , assay BT-549, GI50 value: 47.3 µM (inactive)

Short answer on BT-549 for COc1cc(NCc2ccc3nc(N)nc(N)c3c2C)cc(OC)c1OC , GI50: 0.685 µM (active)

Let me check: O=C(O)c1c2c(c(O)c3c1CN(C1CCCCC1)CO3)OCN(C1CCCCC1)C2 , system BT-549, measured GI50 is > 100 µM (inactive)

Measured on BT-549, O=C1OC(=O)c2cc(S(=O)(=O)c3ccc4c(c3)C(=O)OC4=O)ccc21 has a documented GI50 of > 100 µM (inactive)

GET /values?item= COc1ccc(OC)c2c1-c1nnnn1CCC2(C)C &system= BT-549 returns GI50: > 100 µM (inactive)

Summary: CCOC(=O)/C(C#N)=C\c1ccc(N(CCC(=O)O)CCC(=O)O)c(I)c1 , BT-549, GI50 = > 10 µM (inactive)

Known value: BT-549 GI50 of the compound O=C1c2ccccc2-c2ccc(/N=[N+](/[O-])c3ccc4c(c3)C(=O)c3ccccc3-4)cc21 equals > 100 µM (inactive)

# value of GI50, BT-549, item CC1(C)[C@H](O)CC[C@]2(C)C3=CC[C@@]4(C)[C@@H]5C[C@](C)(CO)CC[C@]5(C)CC[C@]4(C)C3=CC[C@@H]12 = > 100 µM (inactive)

Param item: C#CCCOC(=O)c1ccccc1OC(C)=O ; param system: BT-549; output GI50: > 100 µM (inactive)

---

- System: SNB-75
- assay: NCI tumour cell line growth inhibition, 48 h
Activity calls are given as the source filed them. No stated cut-off is given here; in the data, active = GI50 up to about 1.1 µM and inactive = higher.
Documented GI50 across a set of compounds

Kindly note the recorded GI50 for CNNC1=NS(=O)(=O)c2cc(C)c(Cl)cc2S1 , which is > 10 µM (inactive)

---

- System: IGROV-1
- assay: NCI tumour cell line growth inhibition, 48 h
The source made the active and inactive calls. Rule as the data show it: active = GI50 up to about 1.1 µM and inactive = higher.
measure.name: GI50

INSERT INTO assay_data (compound, measure_name, data_value) VALUES
  ('CCOC(=O)/C(C#N)=C\c1ccc(N(CCC(=O)O)CCC(=O)O)c(I)c1', 'GI50', '> 10 µM (inactive)'),
  ('CC(C)=NC(C(=O)O)C(C)(C)S (stereo not given)', 'GI50', '> 100 µM (inactive)'),
  ('COC(O)C12OC3CO[Si](C(C)C)(C(C)C)O[Si](C(C)C)(C(C)C)OC3C1Oc1nc(=O)ccn12 (stereo not given)', 'GI50', '12.3 µM (inactive)'),
  ('O=C(CC1C(=O)Nc2ccccc2[S+]1[O-])Nc1cccc(Cl)c1 (stereo not given)', 'GI50', '> 37.5 µM (inactive)'),
  ('O=Cc1ccc(OCc2cccc(COc3ccc(/C=N\Nc4ccc([N+](=O)[O-])cc4[N+](=O)[O-])cc3)n2)cc1', 'GI50', '> 100 µM (inactive)'),
  ('Cc1cc2c(nn1)-c1ccccc1C2=O', 'GI50', '> 10 µM (inactive)');

get_value(item= CN1C(=O)N(c2ccccc2)C2(CCN(CC3COc4ccccc4O3)CC2)C1=O (stereo not given) , readout=GI50) returns > 100 µM (inactive)

Lab note: measured GI50 of CCOP(=O)(OCC)C(Nc1ccc(F)cc1)c1cccc([N+](=O)[O-])c1 (stereo not given) was 78.9 µM (inactive)

Measured GI50 of CC(=O)O[C@H]1CC[C@@]2(C)C(=CC[C@@H]3[C@@H]2CC[C@]2(C)NC(=O)/C(=C\c4ccccc4)C[C@@H]32)C1 : 21.4 µM (inactive)

Record O=c1cc(NNCc2ccccc2)[nH]c(=O)[nH]1 . Reported GI50: > 100 µM (inactive)

Lookup result for O=C(NC12CC3CC(CC(C3)C1)C2)C(=O)c1c[nH]c2ccccc12 ; measured GI50: 15.8 µM (inactive)

The compound listed as COc1ccc(OC)c(/C=C/C(=O)C(C)(C)C)c1 shows GI50 equal to 18.2 µM (inactive)

Per the records, this compound ( COc1cc(C=C2C(=O)NC(=S)NC2=O)cc(OC)c1OC ) has GI50 equal to > 100 µM (inactive)

GI50 measured on c1cc(CSP234N5CCN2CCN3CCN4CC5)cc(CSP234N5CCN2CCN3CCN4CC5)c1 = 21.5 µM (inactive)

Note to self: GI50 recorded for COc1cc2c3c(c1OC)-c1ccccc1C(C(OC(C)=O)c1ccccc1)C3N(C)CC2 (stereo not given) was > 100 µM (inactive)
